Molecular target: T1, TNFR1 (Homo sapiens, UniProt P19438)
T1 chain: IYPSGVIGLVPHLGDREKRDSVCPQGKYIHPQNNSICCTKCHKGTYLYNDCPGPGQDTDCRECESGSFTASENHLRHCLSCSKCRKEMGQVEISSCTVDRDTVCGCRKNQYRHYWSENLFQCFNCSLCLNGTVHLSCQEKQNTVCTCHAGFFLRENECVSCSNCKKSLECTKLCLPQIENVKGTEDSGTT
Test: yeast display SC50
READOUT: apparent Kd (screen) (nM)
Your answer should be a plain number; it is taken to be in nM.

Answered examples (2):
T57C (designed binder) SMEEEVEKAAKEYEKKKKEAIEKHLEKLKAKDKEAAERFLKELEEAAKEYAKDEAKCMSEEEAKRRAKKYKEKVLLSELSEEEQKEIKEAEEKLVRTILKYVEEAAK :: 2.73
A51L (designed binder) SMEEEVEKAAKEYEKKKKEAIEKHLEKLKAKDKEAAERFLKELEEAAKEYLKDEAKTMSEEEAKRRAKKYKEKVLLSELSEEEQKEIKEAEEKLVRTILKYVEEAAK :: 2.73

Prompt line: For the binder D32F (designed binder) SMEEEVEKAAKEYEKKKKEAIEKHLEKLKAKFKEAAERFLKELEEAAKEYAKDEAKTMSEEEAKRRAKKYKEKVLLSELSEEEQKEIKEAEEKLVRTILKYVEEAAK , report apparent Kd (screen).
Response line: 6.43

Prompt line: For the binder Y50H (designed binder) SMEEEVEKAAKEYEKKKKEAIEKHLEKLKAKDKEAAERFLKELEEAAKEHAKDEAKTMSEEEAKRRAKKYKEKVLLSELSEEEQKEIKEAEEKLVRTILKYVEEAAK , report apparent Kd (screen).
Response line: 13.8
